Parameter PBM binding z-score: see the listing below.
- Tested on: RARb homodimer (NR concentration 270 nM)
- Procedure Details: PBM binding z-score (relative to random genomic background probes); higher = stronger binding; sequences stand for … in GC…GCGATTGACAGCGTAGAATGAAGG
Enter a number only.

| Monomer Sequence | PBM binding z-score |
| --- | --- |
| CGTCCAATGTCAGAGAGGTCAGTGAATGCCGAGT | 4.14 |
| GGGACTGGGGCATCAGCAGGTTACCATAACTTAA | 1.91 |
| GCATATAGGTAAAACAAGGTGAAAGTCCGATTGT | 0.61 |
| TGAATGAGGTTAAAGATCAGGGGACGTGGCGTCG | 1.02 |
| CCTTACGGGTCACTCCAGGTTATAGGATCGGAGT | 3.21 |
| CGTCCAAGGTCAAGGTCAGCGAAAGAGACTCGAA | 5.23 |
| CCTACTGGGCCATTCAGAGGTCATGGATCATATG | 4.22 |
| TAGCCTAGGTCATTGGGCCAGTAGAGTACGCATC | 3.11 |
| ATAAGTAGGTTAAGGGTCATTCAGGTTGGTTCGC | 4.19 |
| ATACCAAGGTGATCGTGACGTCGTTGATACTAAC | 0.537 |

Return reported PBM binding z-score. Input sequence: GCTGCTAGTTCAGGTTGGTCAGCTAACGGGTACG
0.833

Please report PBM binding z-score for the following sequence: TCTATTAGGTGAAGGGCAACCGACGAGTCCGTTT
1.59

Name the recorded PBM binding z-score of the sequence listed here: CCAGAGAGGTGAGAAGGTAACTCAGCCTCGATTA
1.31

Specify reported PBM binding z-score for the sequence shown: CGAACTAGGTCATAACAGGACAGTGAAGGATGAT
2.36

Kindly indicate its recorded PBM binding z-score. Item: CGTCCAAGGTTAATGCTAGGTCAGTGAAAGCATT
3.14

Assign PBM binding z-score to the following record: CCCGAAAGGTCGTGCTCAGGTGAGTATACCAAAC
2.89

Specify PBM binding z-score for TCATATAGGTAAGACAGGTGAAAGTCGGCATCTA and stop.
0.625

# return recorded PBM binding z-score for entry TCAGACAGGTGCAGGTAACTCAGGTACGCAGTCG
-0.182

Give PBM binding z-score for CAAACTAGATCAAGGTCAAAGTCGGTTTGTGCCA
3.72
